- system.name: T1, BSA-conjugated Aβ heptapeptide FFAEDVC (C-terminal Cys coupled to NSMP-activated BSA);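 also: ELISA of antibody at 10 or 2 µg/ml binding plate-coated BSA–peptide conjugates, detected with HRP anti-human Ig and TMB colour, mock-treated BSA without peptide as negative control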
- T1 construct: also called Peptide 19-24
- T1 peptide: FFAEDVC
- test.details: ELISA
Below is a list of entries, each paired with its recorded Peptide-ratio 19-24/2-7 value.

binder	Peptide-ratio 19-24/2-7
MS-Roche #7.2.H4 Fab (Fab, V domains shown) VH: QVQLVESGGGLVQPGGSLRLSCAASGFTFSSYAMSWVRQAPGKGLEWVSAINSKGSRIYYADSVKGRFTISRDNSKNTLYLQMNSLRAEDTAVYYCARGKGNTHKPYGYVRYFDVWGQGTLVTVSS VL: DIVLTQSPATLSLSPGERATLSCRASQSVSSSYLAWYQQKPGQAPRLLIYGASSRATGVPARFSGSGSGTDFTLTISSLEPEDFATYYCQQIYSFPHTFGQGTKVEIKR	0.52
MS-Roche #7.2.H3 Fab (Fab, V domains shown) VH: QVQLVESGGGLVQPGGSLRLSCAASGFTFSSYAMSWVRQAPGKGLEWVSAINANGYKTYYADSVKGRFTISRDNSKNTLYLQMNSLRAEDTAVYYCARGKGNTHKPYGYVRYFDVWGQGTLVTVSS VL: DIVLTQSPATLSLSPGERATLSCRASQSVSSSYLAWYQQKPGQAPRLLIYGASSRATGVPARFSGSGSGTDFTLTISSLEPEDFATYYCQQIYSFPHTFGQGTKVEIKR	0.55
MS-Roche #7.11.H1 Fab (Fab, V domains shown) VH: QVQLVESGGGLVQPGGSLRLSCAASGFTFSSYAMSWVRQAPGKGLEWVSGINAAGFRTYYADSVKGRFTISRDNSKNTLYLQMNSLRAEDTAVYYCARGKGNTHKPYGYVRYFDVWGQGTLVTVSS VL: DIVLTQSPATLSLSPGERATLSCRASQSVSSSYLAWYQQKPGQAPRLLIYGASSRATGVPARFSGSGSGTDFTLTISSLEPEDFATYYCQQVYSPPHTFGQGTKVEIKR	0.25
MS-Roche #7.12.L1 Fab (Fab, V domains shown) VH: QVQLVESGGGLVQPGGSLRLSCAASGFTFSSYGMSWVRQAPGKGLEWVSNISGSGSSTYYADSVKGRFTISRDNSKNTLYLQMNSLRAEDTAVYYCARGKGNTHKPYGYVRYFDVWGQGTLVTVSS VL: DIVLTQSPATLSLSPGERATLSCRASQYVFRRYLAWYQQKPGQAPRLLISGSSNRATGVPARFSGSGSGTDFTLTISSLEPEDFAVYYCLQLYNIPNTFGQGTKVEIKR	0.59

--- query ---
Requested field: Peptide-ratio 19-24/2-7. Item: MS-Roche #7.9.H2 Fab (Fab, V domains shown, assembled) VH: QVQLVESGGGLVQPGGSLRLSCAASGFTFSSYAMSWVRQAPGKGLEWVSAINADGNRKYYADSVKGRFTISRDNSKNTLYLQMNSLRAEDTAVYYCARGKGNTHKPYGYVRYFDVWGQGTLVTVSS VL: DIVLTQSPATLSLSPGERATLSCRASQSVSSSYLAWYQQKPGQAPRLLIYGASSRATGVPARFSGSGSGTDFTLTISSLEPEDFATYYCLQIYNMPITFGQGTKVEIKR
0.23
